- Read-out: Monocyte Chemoattractant Protein-1 (MCP1), CCL2 (gene 6347)
- Method Summary: BSK_hDFCGF_MCP1: BioMAP Diversity Plus: hDFCGF Assay for Monocyte Chemoattractant Protein-1 (MCP1) Biomarker Activity (AID 2284285)
- Condition Details: primary human foreskin fibroblasts
Active and inactive are the calls of the source. How the source made its calls: active means hit-call score of the fitted dose curve at least 0.9, where 1 is the maximum; inactive means score below 0.9.
Observation Type: outcome

Examples with answers:
OCCCCC(F)(F)C(F)(F)C(F)(F)C(F)(F)F ... inactive
NC(=O)C(F)(F)C(F)(F)C(F)(F)C(F)(F)C(N)=O ... inactive
O=S(=O)(O)CCC(F)(F)C(F)(F)C(F)(F)C(F)(F)F ... inactive
O=S(=O)(Cl)C(F)(F)C(F)(F)C(F)(F)C(F)(F)C(F)(F)C(F)(F)C(F)(F)C(F)(F)F ... inactive
CO[Si](C)(CCC(F)(F)C(F)(F)C(F)(F)C(F)(F)C(F)(F)C(F)(F)F)OC ... inactive
OCC(O)CC(F)(F)C(F)(F)C(F)(F)C(F)(F)C(F)(F)C(F)(F)C(F)(F)C(F)(F)F (centres undefined) ... inactive
CN(C(=O)C(F)(F)C(F)(F)C(F)(F)F)[Si](C)(C)C ... inactive
NCC(F)(F)C(F)(F)C(F)(F)C(F)(F)C(F)(F)C(F)(F)C(F)(F)C(F)(F)F ... inactive

// moving on: another record for outcome
Req: Looking for the measured outcome of `C=C(C)C(=O)OCC(F)(F)C(F)(F)C(F)(F)C(F)F` , can you help?
Resp: inactive

* * *

- Read-out: Decorin, DCN (gene 1634)
- Method Summary: BSK_MyoF_Decorin: BioMAP Diversity Plus: MyoF Assay for Decorin Biomarker Activity (AID 2284265)
- Condition Details: primary human lung fibroblasts
- Experimental: BSK_MyoF is a cell-based, multiplexed-readout assay that uses lung fibroblasts, […], with measurements taken at 24 hours after chemical dosing in a microplate: 96-well plate.BSK_MyoF_Decorin is an assay component measured in the BSK_MyoF assay. […] The levels of cell surface (or secreted, indicated by the prefix "s") biomarker endpoints were measured by ELISA. […] Plates were read after 6 h.
The source made the active and inactive calls. How the source made its calls: active means hit-call score of the fitted dose curve at least 0.9, where 1 is the maximum; inactive means score below 0.9.
Observation Type: outcome

Examples with answers:
CC1=CC2C3C=CC(C3)C2C1C (stereo not given) ... inactive
CO[Si](C)(CCC(F)(F)C(F)(F)C(F)(F)C(F)(F)C(F)(F)C(F)(F)F)OC ... inactive
Nc1cc([N+](=O)[O-])cc(Cl)c1O ... inactive
C[Si](Cl)(Cl)CCC(F)(F)C(F)(F)C(F)(F)C(F)(F)C(F)(F)C(F)(F)F ... inactive
OCC(O)CC(F)(F)C(F)(F)C(F)(F)C(F)(F)C(F)(F)C(F)(F)C(F)(F)C(F)(F)F (stereo not given) ... inactive

Req: Looking for the measured outcome of `O=C1C=CC(=O)N1c1ccc(Cc2ccc(N3C(=O)C=CC3=O)cc2)cc1` , can you help?
Resp: inactive

Req: Input `C[C@]12CC[C@H]3C(=CCc4cc(O)ccc43)[C@@H]1CCC2=O`
Resp: inactive

Req: Input FC(F)(F)C(F)(F)C(F)(F)CC1CO1 (stereo not given)
Resp: inactive

Req: Input `O=C(O)C(F)(F)OC(F)(F)C(F)(F)OC(F)(F)C(F)(F)OC(F)(F)F`
Resp: inactive

Req: Input `OCCCCC(F)(F)C(F)(F)C(F)(F)C(F)(F)F`
Resp: inactive
